Attribution: the Human Domainome abundance scans (Beltran et al. 2025)

B1: Storkhead-box protein 2, residues 64 to 141; numbered along this chain, Q9P2F5 (parent)
chain: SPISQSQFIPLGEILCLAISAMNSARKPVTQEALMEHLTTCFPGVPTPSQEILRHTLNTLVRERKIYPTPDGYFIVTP

variants of: B1; assay: abundance fitness (aPCA) (normalised: wild type 0, dead -1); higher = more abundant; growth selection in yeast, the domain comes from the species named; conditions: Homo sapiens
Reported values of abundance fitness for individual entries

Look over these answered cases.
sequence_record=SPISQSQFIPLGEILCLAISAMNSWRKPVTQEALMEHLTTCFPGVPTPSQEILRHTLNTLVRERKIYPTPDGYFIVTP assay_metric="abundance fitness" result=-0.189
sequence_record=SPISQSQFIPLGEILCLAISAMNSARKPVTQEALMEHLTTCFPGVPTPSQEILRHWLNTLVRERKIYPTPDGYFIVTP assay_metric="abundance fitness" result=-0.022
sequence_record=SPISQSQFIPLGEILCLAISAMNSARKPVTQEALMEHLTTCFPGVPTPSQEILRHTLNTLVRERKIYPTPDGMFIVTP assay_metric="abundance fitness" result=-0.108
sequence_record=SPISQSQFIPLGEILCLAISAMNSARKPVTQEALMEHLTTCFPGVPTPSQEILRHTLNTLVRERKDYPTPDGYFIVTP assay_metric="abundance fitness" result=-1.02
sequence_record=SPISQSQFIPLGEILCLAISAMNSARKPVTQEALMEHLTTCFPGVPTPSQEILRHTLNTLVRERKIYPTPDGYFLVTP assay_metric="abundance fitness" result=-0.017
sequence_record=SPISQSQFIPLGEILCLAISAMNSARKPVTQEALMEHLTTCFPGVPTPSQEILRHTLNTLVRERKIYTTPDGYFIVTP assay_metric="abundance fitness" result=0.04
sequence_record=SPISQSQFIPLGEILCLAISAMASARKPVTQEALMEHLTTCFPGVPTPSQEILRHTLNTLVRERKIYPTPDGYFIVTP assay_metric="abundance fitness" result=-0.156
sequence_record=SPISQSQFIPLGVILCLAISAMNSARKPVTQEALMEHLTTCFPGVPTPSQEILRHTLNTLVRERKIYPTPDGYFIVTP assay_metric="abundance fitness" result=-0.241

Now for a further variant.
Please fill in: abundance fitness reported for SPISQSQFIPLGEILCLAISAMNSARKPVTQEALMEHLTTCFPGMPTPSQEILRHTLNTLVRERKIYPTPDGYFIVTP = -0.109
